meta.source: ChEMBL document CHEMBL2424631

Molecular target: Transient receptor potential cation channel subfamily V member 1 (Rattus norvegicus, UniProt O35433)
Sequence (O35433 whole entry): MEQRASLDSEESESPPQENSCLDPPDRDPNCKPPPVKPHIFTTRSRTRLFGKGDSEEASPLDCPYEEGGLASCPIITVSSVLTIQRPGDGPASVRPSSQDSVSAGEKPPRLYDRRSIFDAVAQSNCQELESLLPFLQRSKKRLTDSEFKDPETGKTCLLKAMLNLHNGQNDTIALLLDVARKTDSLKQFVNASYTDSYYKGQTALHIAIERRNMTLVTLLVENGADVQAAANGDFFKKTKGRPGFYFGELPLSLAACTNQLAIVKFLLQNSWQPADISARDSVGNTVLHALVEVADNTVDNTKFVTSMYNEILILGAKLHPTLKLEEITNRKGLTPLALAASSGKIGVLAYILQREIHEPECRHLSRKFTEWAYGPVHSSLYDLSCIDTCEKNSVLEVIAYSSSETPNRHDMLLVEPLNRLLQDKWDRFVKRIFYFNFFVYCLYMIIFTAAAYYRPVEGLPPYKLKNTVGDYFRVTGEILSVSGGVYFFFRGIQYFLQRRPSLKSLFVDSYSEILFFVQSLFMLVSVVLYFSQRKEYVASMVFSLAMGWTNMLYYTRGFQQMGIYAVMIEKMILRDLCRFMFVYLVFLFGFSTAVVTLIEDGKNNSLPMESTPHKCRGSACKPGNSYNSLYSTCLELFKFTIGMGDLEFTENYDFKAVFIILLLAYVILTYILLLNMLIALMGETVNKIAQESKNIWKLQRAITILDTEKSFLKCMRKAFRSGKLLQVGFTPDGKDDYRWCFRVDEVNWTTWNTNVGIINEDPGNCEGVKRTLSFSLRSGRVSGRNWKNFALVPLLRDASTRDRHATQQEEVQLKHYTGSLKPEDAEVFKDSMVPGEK
Test: Agonist activity at rat TRPV1 expressed in CHO cells assessed as stimulation of Ca2+ uptake
pEC50: −log10 of the molar value.
Parameter measured: pEC50

smiles_representation=C=C(C)[C@]12C[C@@H](C)[C@@]34O[C@](Cc5ccccc5)(O[C@@H]1[C@@H]3C=C(COC(=O)Oc1ccc(NS(C)(=O)=O)c(OC)c1)C[C@]1(O)C(=O)C(C)=C[C@@H]41)O2 value_observed=8.34
smiles_representation=C=C(C)[C@]12C[C@@H](C)[C@@]34O[C@](Cc5ccccc5)(O[C@@H]1[C@@H]3C=C(COC(=O)Oc1cc(F)c(N)c(OC)c1)C[C@]1(O)C(=O)C(C)=C[C@@H]41)O2 value_observed=8.50
smiles_representation=C=C(C)[C@]12C[C@@H](C)[C@@]34O[C@](Cc5ccccc5)(O[C@@H]1[C@@H]3C=C(COC(=O)Oc1cc(F)c(O)c(OC)c1)C[C@]1(O)C(=O)C(C)=C[C@@H]41)O2 value_observed=8.30
smiles_representation=C=C(C)[C@]12C[C@@H](C)[C@@]34O[C@](Cc5ccccc5)(O[C@@H]1[C@@H]3C=C(COC(=O)Oc1ccc(N)c(OC)c1)C[C@]1(O)C(=O)C(C)=C[C@@H]41)O2 value_observed=8.74

---

Molecular target: Transient receptor potential cation channel subfamily V member 1 (Homo sapiens, UniProt Q8NER1)
Sequence (Q8NER1 whole entry): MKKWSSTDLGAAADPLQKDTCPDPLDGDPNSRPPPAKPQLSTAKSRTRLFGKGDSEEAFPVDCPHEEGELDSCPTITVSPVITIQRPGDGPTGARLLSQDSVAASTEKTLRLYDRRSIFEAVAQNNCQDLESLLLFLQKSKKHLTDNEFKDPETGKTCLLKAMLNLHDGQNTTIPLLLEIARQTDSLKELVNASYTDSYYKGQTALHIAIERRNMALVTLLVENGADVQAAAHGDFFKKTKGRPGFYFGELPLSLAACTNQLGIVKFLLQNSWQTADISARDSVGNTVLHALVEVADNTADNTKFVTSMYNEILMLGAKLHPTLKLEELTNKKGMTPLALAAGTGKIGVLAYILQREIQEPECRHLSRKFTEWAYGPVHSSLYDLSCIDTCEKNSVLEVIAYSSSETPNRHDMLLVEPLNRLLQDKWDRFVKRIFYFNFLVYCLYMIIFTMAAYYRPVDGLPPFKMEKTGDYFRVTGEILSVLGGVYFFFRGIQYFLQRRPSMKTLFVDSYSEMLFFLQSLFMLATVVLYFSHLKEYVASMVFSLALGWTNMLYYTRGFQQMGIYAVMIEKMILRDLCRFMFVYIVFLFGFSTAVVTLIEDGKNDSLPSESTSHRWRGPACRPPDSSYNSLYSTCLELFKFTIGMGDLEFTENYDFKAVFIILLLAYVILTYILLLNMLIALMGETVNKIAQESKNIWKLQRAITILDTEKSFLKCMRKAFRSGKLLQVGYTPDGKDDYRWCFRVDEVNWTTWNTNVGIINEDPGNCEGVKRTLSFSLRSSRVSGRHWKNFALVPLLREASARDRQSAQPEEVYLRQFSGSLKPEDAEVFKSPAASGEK
Test: Agonist activity at human TRPV1 expressed in CHO cells assessed as stimulation of Ca2+ uptake
Measured EC50 accompanies every entry in the list below.
Parameter measured: EC50 (nM)

smiles_representation=C=C(C)[C@]12C[C@@H](C)[C@@]34O[C@](Cc5ccccc5)(O[C@@H]1[C@@H]3C=C(COC(=O)Oc1cc(Cl)c(O)c(OC)c1)C[C@]1(O)C(=O)C(C)=C[C@@H]41)O2 value_observed=183
smiles_representation=C=C(C)[C@]12C[C@@H](C)[C@@]34O[C@](Cc5ccccc5)(O[C@@H]1[C@@H]3C=C(COC(=O)Oc1cc(F)c(N)c(OC)c1)C[C@]1(O)C(=O)C(C)=C[C@@H]41)O2 value_observed=17.9
smiles_representation=C=C(C)[C@]12C[C@@H](C)[C@@]34O[C@](Cc5ccccc5)(O[C@@H]1[C@@H]3C=C(COC(=O)Cc1ccc(O)c(OC)c1)C[C@]1(O)C(=O)C(C)=C[C@@H]41)O2 value_observed=0.92

---

Target: Transient receptor potential cation channel subfamily V member 1 (Rattus norvegicus)
Assay: Antagonist activity at rat TRPV1 expressed in CHO cells assessed as inhibition of capsaicin-stimulated Ca2+ uptake
Assay type: cell-based
Parameter measured: Ki (nM)

smiles_representation=C=C(C)[C@]12C[C@@H](C)[C@@]34O[C@](Cc5ccccc5)(O[C@@H]1[C@@H]3C=C(COC(=O)Oc1cc(Cl)c(O)c(OC)c1)C[C@]1(O)C(=O)C(C)=C[C@@H]41)O2 value_observed=21.3
smiles_representation=C=C(C)[C@]12C[C@@H](C)[C@@]34O[C@](Cc5ccccc5)(O[C@@H]1[C@@H]3C=C(COC(=O)Oc1cc(I)c(O)c(OC)c1)C[C@]1(O)C(=O)C(C)=C[C@@H]41)O2 value_observed=2.23
smiles_representation=C=C(C)[C@]12C[C@@H](C)[C@@]34O[C@](Cc5ccccc5)(O[C@@H]1[C@@H]3C=C(COC(=O)Oc1cc(I)c(N)c(OC)c1)C[C@]1(O)C(=O)C(C)=C[C@@H]41)O2 value_observed=2.68
smiles_representation=C=C(C)[C@]12C[C@@H](C)[C@@]34O[C@](Cc5ccccc5)(O[C@@H]1[C@@H]3C=C(COC(=O)Oc1cc(Br)c(N)c(OC)c1)C[C@]1(O)C(=O)C(C)=C[C@@H]41)O2 value_observed=2.46
smiles_representation=C=C(C)[C@]12C[C@@H](C)[C@@]34O[C@](Cc5ccccc5)(O[C@@H]1[C@@H]3C=C(COC(=O)Oc1cc(Cl)c(N)c(OC)c1)C[C@]1(O)C(=O)C(C)=C[C@@H]41)O2 value_observed=4.06
smiles_representation=C=C(C)[C@]12C[C@@H](C)[C@@]34O[C@](Cc5ccccc5)(O[C@@H]1[C@@H]3C=C(COC(=O)Oc1cc(Br)c(O)c(OC)c1)C[C@]1(O)C(=O)C(C)=C[C@@H]41)O2 value_observed=5.2

---

Measured Ki accompanies every entry in the list below.
Target: Transient receptor potential cation channel subfamily V member 1 (Rattus norvegicus, UniProt O35433)
Experiment: Displacement of [3H]RTX from rat TRPV1 expressed in CHO cells
Assay type: cell-based
Parameter measured: Ki (nM)

smiles_representation=C=C(C)[C@]12C[C@@H](C)[C@@]34O[C@](Cc5ccccc5)(O[C@@H]1[C@@H]3C=C(COC(=O)Oc1cc(F)c(O)c(OC)c1)C[C@]1(O)C(=O)C(C)=C[C@@H]41)O2 value_observed=1.17
smiles_representation=C=C(C)[C@]12C[C@@H](C)[C@@]34O[C@](Cc5ccccc5)(O[C@@H]1[C@@H]3C=C(COC(=O)Oc1cc(I)c(O)c(OC)c1)C[C@]1(O)C(=O)C(C)=C[C@@H]41)O2 value_observed=1.66
smiles_representation=C=C(C)[C@]12C[C@@H](C)[C@@]34O[C@](Cc5ccccc5)(O[C@@H]1[C@@H]3C=C(COC(=O)Oc1cc(Cl)c(N)c(OC)c1)C[C@]1(O)C(=O)C(C)=C[C@@H]41)O2 value_observed=2.5

---

Target: Transient receptor potential cation channel subfamily V member 1 (Homo sapiens)
Assay: Agonist activity at human TRPV1 expressed in CHO cells assessed as stimulation of Ca2+ uptake
Format: cell-based
Measured EC50 accompanies every entry in the list below.
Parameter measured: EC50

smiles_representation=C=C(C)[C@]12C[C@@H](C)[C@@]34O[C@](Cc5ccccc5)(O[C@@H]1[C@@H]3C=C(COC(=O)Oc1cc(F)c(O)c(OC)c1)C[C@]1(O)C(=O)C(C)=C[C@@H]41)O2 value_observed="16.3 nM"
smiles_representation=C=C(C)[C@]12C[C@@H](C)[C@@]34O[C@](Cc5ccccc5)(O[C@@H]1[C@@H]3C=C(COC(=O)Oc1ccc(NS(C)(=O)=O)c(OC)c1)C[C@]1(O)C(=O)C(C)=C[C@@H]41)O2 value_observed="16.5 nM"
smiles_representation=C=C(C)[C@]12C[C@@H](C)[C@@]34O[C@](Cc5ccccc5)(O[C@@H]1[C@@H]3C=C(COC(=O)Oc1ccc(N)c(OC)c1)C[C@]1(O)C(=O)C(C)=C[C@@H]41)O2 value_observed="6.28 nM"

---

Target: Transient receptor potential cation channel subfamily V member 1 (Rattus norvegicus) (UniProt O35433)
Test: Ratio of I-RTX Ki to compound Ki for rat TRPV1 expressed in CHO cells
Type: cell-based
Measured Ratio Ki accompanies every entry in the list below.
Parameter measured: Ratio Ki

smiles_representation=C=C(C)[C@]12C[C@@H](C)[C@@]34O[C@](Cc5ccccc5)(O[C@@H]1[C@@H]3C=C(COC(=O)Oc1cc(Br)c(O)c(OC)c1)C[C@]1(O)C(=O)C(C)=C[C@@H]41)O2 parameter_measured="Ratio Ki" value_observed=2
smiles_representation=C=C(C)[C@]12C[C@@H](C)[C@@]34O[C@](Cc5ccccc5)(O[C@@H]1[C@@H]3C=C(COC(=O)Oc1cc(Br)c(N)c(OC)c1)C[C@]1(O)C(=O)C(C)=C[C@@H]41)O2 parameter_measured="Ratio Ki" value_observed=5
smiles_representation=C=C(C)[C@]12C[C@@H](C)[C@@]34O[C@](Cc5ccccc5)(O[C@@H]1[C@@H]3C=C(COC(=O)Oc1cc(Cl)c(N)c(OC)c1)C[C@]1(O)C(=O)C(C)=C[C@@H]41)O2 parameter_measured="Ratio Ki" value_observed=5
smiles_representation=C=C(C)[C@]12C[C@@H](C)[C@@]34O[C@](Cc5ccccc5)(O[C@@H]1[C@@H]3C=C(COC(=O)Oc1cc(I)c(O)c(OC)c1)C[C@]1(O)C(=O)C(C)=C[C@@H]41)O2 parameter_measured="Ratio Ki" value_observed=5
